// reported cell viability per item
# Test system: NOMO1
# measurement.notes: cell viability relative to DMSO control; higher = less cytotoxic
# recorded.conditions: RPMI 5 mM glucose + 10% FBS; 48 h; 0.0211 µM
Unit % implied. Number only.

### Prompt # returns recorded cell viability (system: NOMO1) for Cc1cc(C(=O)N2CCN(c3cccc(Cl)c3)CC2)n(-c2ccccc2)n1
### Response 97.5

### Prompt Follow-up entry: CCCCC(C=O)NC(=O)C(CC(C)C)NC(=O)OCc1ccccc1 (centres undefined)
### Response 102

### Prompt Lookup CC[C@H](C)C(=O)O[C@H]1C[C@H](O)\C=C2\C=C/[C@H](C)[C@H](CC[C@@H](O)C[C@@H](O)CC(O)=O)[C@@H]12
### Response 106

---
### Prompt Provide the documented cell viability with NOMO1 as the system for CC(C)C[C@H](NC(=O)CNC(=O)c1cc(Cl)ccc1Cl)B(O)O
### Response 16.8

### Prompt Please give the result for NC(=O)c1cccc2nc(-c3ccc([C@H]4CCCN4)cc3F)[nH]c12 too.
### Response 114

### Prompt Repeat for the following compound: C[C@]12CC[C@@H]3c4ccc(O)cc4CC[C@H]3[C@@H]1C[C@@H](O)[C@@H]2O
### Response 114

* * *

# System: NOMO1
# measurement.notes: cell viability relative to DMSO control; higher = less cytotoxic
# recorded.conditions: RPMI 5 mM glucose + 10% FBS; 48 h; 0.19 µM
# cell viability values compiled below
Kindly provide the numeric value in % only, without the unit symbol.

### Prompt Which measured cell viability value corresponds to O=C1Nc2ccc(I)cc2/C1=C/c1cc(Br)c(O)c(Br)c1 ?
### Response 100

### Prompt Now give it for COc1cc2c(Nc3ccc(Br)cc3F)ncnc2cc1OCC1CCN(C)CC1 too.
### Response 78.1

### Prompt Also, C/C(O)=C(\C#N)C(=O)Nc1cc(Br)ccc1Br please.
### Response 92.5

Further cases:
### Prompt Which measured cell viability value corresponds to CN1C(=O)C[C@H](C(=O)N[C@@H](Cc2cnc[nH]2)C(=O)N2CCC[C@H]2C(N)=O)NC1=O ?
### Response 132

### Prompt How about this molecule: CC1(C)CNc2cc(NC(=O)c3cccnc3NCc3ccncc3)ccc21
### Response 118

### Prompt Can you handle CC(C)c1ccc(Cn2ccc3c4c(N)nc(NC5CC5)nc4ccc32)cc1 next?
### Response 130

### Prompt Let us now turn to ClC1=CC\2=C(NC(=O)\C(=C2N[C@@H]3CN4CCC3CC4)C5=NC6=C([NH]5)C=CC=C6)C=C1
### Response 46.4

### Prompt Query c1ccc(CNc2nc(N3CCOc4ccccc43)nc3c2CCCC3)cc1 next
### Response 106

### Prompt Entry CN[C@@H]1Cc2cccc3[nH]c(=O)n(c23)C1 please
### Response 105

### Prompt Can you handle O=C(Nc1ncc(SCCN2CCCC2)s1)[C@]1(c2ccc([S+](=O)([O-])C3CC3)cc2)C[C@H]1C1CCCCC1 next?
### Response 113

* * *

# Tested on: P12-Ichikawa
# measurement.notes: cell viability relative to DMSO control; higher = less cytotoxic
# recorded.conditions: RPMI 5 mM glucose + 10% FBS; 48 h; 5.12 µM
// boundary case: cell viability equal to 80% maps to label 0; strictly smaller maps to label 1

Some entries whose results are on file:
### Prompt Just wondering, is cell viability of COc1cc([C@H]2Oc3cc([C@H]4Oc5cc(O)cc(O)c5C(=O)[C@@H]4O)ccc3O[C@@H]2CO)ccc1O below 80%?
### Response label 0

### Prompt What would you report for COc1cc2nc(-c3cc(F)ccc3O)nc(N[C@@H]3CNC[C@H]3C(C)(C)O)c2cc1OC ?
### Response label 0

### Prompt Same question for Cc1cc(Nc2nc(N[C@@H](C)c3ccc(F)cc3)c(C#N)cc2F)n[nH]1 please.
### Response label 1

### Prompt Query Oc1cccc(-c2nc(N3CCOCC3)c3oc4ncccc4c3n2)c1 next
### Response label 0

### Prompt Proceed to c1ccc(CNc2nc(N3CCOc4ccccc43)nc3c2CCCC3)cc1
### Response label 0

### Prompt Request: Nc1nc(N)c2nc(-c3cccc(O)c3)c(-c3cccc(O)c3)nc2n1
### Response label 0

### Prompt Now consider COC(=O)C1C2CC3c4[nH]c5cc(OC)ccc5c4CCN3CC2CC(OC(=O)c2cc(OC)c(OC)c(OC)c2)C1OC (stereo unspecified) and answer again.
### Response label 0

### Prompt Proceed to Cc1cc(Nc2cc(CN3CCOCC3)c3nc(C)c(Cc4ccc(Cl)cc4F)n3n2)[nH]n1
### Response label 0

### Prompt Entry Nc1cccc2c1CN([C@H]1CCC(=O)NC1=O)C2=O please
### Response label 0

### Prompt What about CC[C@@]1(O)C(=O)OC\C2=C1\C=C\3N(CC4=C3N=C5C=CC=CC5=C4)C2=O ?
### Response label 1

Others:
### Prompt Here's an entry: COc1cccc([C@@H](C)NCCCc2ccccc2Cl)c1 . Is its cell viability below 80%?
### Response label 0

### Prompt Record: CO/C1=C/C(C)=C\[C@@H](C)[C@@H](O)[C@@H](C)C/C(C)=C\C=C/[C@H](OC)[C@@H]([C@@H](C)[C@@H](O)[C@H](C)[C@@]2(O)C[C@@H](O)[C@H](C)[C@@H](C(C)C)O2)OC1=O
### Response label 1

### Prompt Now the molecule CC[C@]12\C=C/CN3CC[C@]4([C@@H](N(C)C5=CC(=C(C=C45)[C@]6(C[C@H]7C[C@H](CN(C7)CC8=C6[NH]C9=C8C=CC=C9)C(C)(F)F)C(=O)OC)OC)[C@](O)([C@@H]1OC(C)=O)C(=O)OC)[C@H]23
### Response label 1

### Prompt Ok, now C=CC(=O)Nc1cccc(Nc2nc(NC3CCC(N(C)C)CC3)nc3c2ncn3C(C)C)c1 (stereo unspecified)
### Response label 1

* * *

# Tested on: SEM cells
# measurement.notes: cell viability relative to DMSO control; higher = less cytotoxic
# recorded.conditions: RPMI 5 mM glucose + 10% dialyzed FBS; 48 h; 0.19 µM
endpoint.name: cell viability (%)
Please give a number only; it is taken to be in %.

### Prompt Which cell viability is reported for this molecule? COc1ccc(C2Sc3ccccc3N(CCN(C)C)C(=O)C2OC(C)=O)cc1 (stereo not drawn)
### Response 115

### Prompt What about Cn1cc(/C=C2\C(=O)Nc3cccnc32)c2ccccc21 ?
### Response 119

---
### Prompt Name the recorded cell viability for Nc1cc(C(F)(F)F)c(-c2cc(N3CCOCC3)nc(N3CCOCC3)n2)cn1 .
### Response 91.1

### Prompt Can you handle Cn1c(=O)n(-c2ccc(C(C)(C)C#N)cc2)c2c3cc(-c4cnc5ccccc5c4)ccc3ncc21 next?
### Response 57.9

### Prompt COc1ccc2c(c1)c(CC(=O)OCC(=O)O)c(C)n2C(=O)c1ccc(Cl)cc1 ?
### Response 116

### Prompt Do the same for NC(=O)c1cccc2nc(-c3ccc([C@H]4CCCN4)cc3F)[nH]c12 please
### Response 109

### Prompt Entry CN(C)CCOc1ccc(-c2nc(-c3ccncc3)c(-c3ccc4c(c3)CC/C4=N\O)[nH]2)cc1 please
### Response 119

### Prompt What do you have for CC1=C(CC(=O)O)c2cc(F)ccc2/C1=C\c1ccc([S+](C)[O-])cc1 (stereo not drawn) ?
### Response 115

### Prompt What do you get for COc1cc([C@H]2Oc3cc([C@H]4Oc5cc(O)cc(O)c5C(=O)[C@@H]4O)ccc3O[C@@H]2CO)ccc1O ?
### Response 126

### Prompt Follow-up item: OC(=O)C(CC/1=C/C(=O)NC2=CC=CC=C12)NC(=O)C3=CC=C(Cl)C=C3 (stereo not drawn)
### Response 119

### Prompt Check c1ccc(CNc2nc(N3CCOc4ccccc43)nc3c2CCCC3)cc1 too.
### Response 103

### Prompt Further, for O=C(Cc1ccc(-c2ccc(OCCN3CCOCC3)cc2)cn1)NCc1ccccc1 ?
### Response 19.1

* * *

# Tested on: NOMO1
# measurement.notes: AUC of viability dose-response curve (% viability x log10 dose units); higher = less sensitive
# recorded.conditions: RPMI 5 mM glucose + 10% FBS; 48 h
endpoint.name: AUC of viability dose-response curve
I'd appreciate a reply containing only the number, no unit.

### Prompt AUC of viability dose-response curve for CN1\C(=C(\O)C2=C(C=CC=C2)[S+]1([O-])=O)C(=O)NC3=CC=CC=N3 ?
### Response 428

### Prompt Cool, now CC(=O)NCCC(=O)N[C@@H](CCC(N)=O)C(=O)N[C@@H](CO)C(=O)N[C@@H](CCC(N)=O)C(=O)N[C@@H](CCC(N)=O)C(=O)N[C@H](C(=O)N[C@@H](Cc1ccccc1)C(=O)N[C@]1(C)CCCCCC/C=C\CCC[C@@](C)(C(=O)N[C@@H](CCC(N)=O)C(=O)N[C@@H](CC(N)=O)C(N)=O)NC(=O)[C@H](CC(C)C)NC(=O)[C@H](CC(C)C)NC(=O)[C@@H](CCCNC(=N)N)NC(=O)[C@H](Cc2c[nH]c3ccccc23)NC(=O)[C@H](CC(C)C)NC(=O)[C@H](CC(N)=O)NC1=O)[C@H](C)O
### Response 451

### Prompt Same for NC(=O)c1cccc2cn(-c3ccc([C@@H]4CCCNC4)cc3)nc12
### Response 456

### Prompt What do we get for O=C(Nc1ncc(SCCN2CCCC2)s1)[C@]1(c2ccc([S+](=O)([O-])C3CC3)cc2)C[C@H]1C1CCCCC1 ?
### Response 451

### Prompt Another compound: COC(=O)C1C2CC3c4[nH]c5cc(OC)ccc5c4CCN3CC2CC(OC(=O)c2cc(OC)c(OC)c(OC)c2)C1OC (stereo not drawn)
### Response 454

### Prompt Field entry: C=CC(=O)Nc1cccc(Nc2nc(NC3CCC(N(C)C)CC3)nc3c2ncn3C(C)C)c1 (stereo not drawn)
### Response 361

### Prompt Now consider O=C(O)CCn1c2c(c3ccccc31)C[C@H](N[S+](=O)([O-])c1ccc(F)cc1)CC2 and answer again.
### Response 457

### Prompt Same question for CC/1=C(/C(CC(=O)N1)C2=CC=C(C=C2)C(F)(F)F)C(=O)NC3=C(F)C=C4[NH]N=CC4=C3 (stereo not drawn) please.
### Response 389

***
### Prompt Which AUC of viability dose-response curve value belongs to CC(/C=C1\SC(=S)N(CC(=O)O)C1=O)=C\c1ccccc1 ?
### Response 454

### Prompt Follow-up item: COc1cc2c(Nc3ccc(Br)cc3F)ncnc2cc1OCC1CCN(C)CC1
### Response 373

### Prompt Same read-out for CN1C(=O)C[C@H](C(=O)N[C@@H](Cc2cnc[nH]2)C(=O)N2CCC[C@H]2C(N)=O)NC1=O ?
### Response 463

### Prompt Moving on to the next compound: N[S+](=O)([O-])NCCNc1nonc1/C(=N/O)Nc1ccc(F)c(Br)c1
### Response 373

### Prompt Then what about the compound Cc1ccc([S+](=O)([O-])Nc2nc3ccccc3nc2Nc2ccc3nsnc3c2)cc1 ?
### Response 360
